Answer each item with its documented pKd.
assay system: T1, mouse serum albumin (mouse, UniProt P07724 25-608)
T1 construct: Bought protein, immobilized on a CM5 chip by amine coupling; also called Mouse SA
test description: SPR (Biacore 8K), albumin immobilized on CM5 chip, 25 C, 1:1 kinetic fit
Quick note: pKd values are minus log10 of concentrations in mol/L.

pKd reading for RLN Analog 12 (other, Single-chain fusion: VHH - (G4Q)5 L1 - RLN2 B chain (desB1) - L2 of thirteen residues - RLN2 A chain (desA1-4)) EVQLLESGGGLVQPGGSLRLSCAASGRYIDETAVAWFRQAPGKGREFVAGIGGGVDITYYADSVKGRFTISRDNSKNTLYLQMNSLRPEDTAVYYCAARPGRPLITSKVADLYPYWGQGTLVTVSSGGGGQGGGGQGGGGQGGGGQGGGGQSWMEEVIKLCGRELVRAQIAICGMSTWSGGGSGGSGGSGGGALANKCCHVGCTKRSLARFC : 8.59

Summary for this binder, RLN Analog 9 (other, Single-chain fusion: RLN2 B chain (desB1) - L2 - RLN2 A chain - (G4Q)5 L1 - VHH (C-terminal)) SWMEEVIKLCGRELVRAQIAICGMSTWSGGGSGGSGGGQLYSALANKCCHVGCTKRSLARFCGGGGQGGGGQGGGGQGGGGQGGGGQEVQLLESGGGLVQPGGSLRLSCAASGRYIDETAVAWFRQAPGKGREFVAGIGGGVDITYYADSVKGRFTISRDNSKNTLYLQMNSLRPEDTAVYYCAARPGRPLITSKVADLYPYWGQGTLVTVSSPP : pKd is 8.02
